These data points were gathered from patent US8633318B2.

Target: human SSAO (Homo sapiens, UniProt Q16853)
Sequence (Q16853 29-763 limits assumed): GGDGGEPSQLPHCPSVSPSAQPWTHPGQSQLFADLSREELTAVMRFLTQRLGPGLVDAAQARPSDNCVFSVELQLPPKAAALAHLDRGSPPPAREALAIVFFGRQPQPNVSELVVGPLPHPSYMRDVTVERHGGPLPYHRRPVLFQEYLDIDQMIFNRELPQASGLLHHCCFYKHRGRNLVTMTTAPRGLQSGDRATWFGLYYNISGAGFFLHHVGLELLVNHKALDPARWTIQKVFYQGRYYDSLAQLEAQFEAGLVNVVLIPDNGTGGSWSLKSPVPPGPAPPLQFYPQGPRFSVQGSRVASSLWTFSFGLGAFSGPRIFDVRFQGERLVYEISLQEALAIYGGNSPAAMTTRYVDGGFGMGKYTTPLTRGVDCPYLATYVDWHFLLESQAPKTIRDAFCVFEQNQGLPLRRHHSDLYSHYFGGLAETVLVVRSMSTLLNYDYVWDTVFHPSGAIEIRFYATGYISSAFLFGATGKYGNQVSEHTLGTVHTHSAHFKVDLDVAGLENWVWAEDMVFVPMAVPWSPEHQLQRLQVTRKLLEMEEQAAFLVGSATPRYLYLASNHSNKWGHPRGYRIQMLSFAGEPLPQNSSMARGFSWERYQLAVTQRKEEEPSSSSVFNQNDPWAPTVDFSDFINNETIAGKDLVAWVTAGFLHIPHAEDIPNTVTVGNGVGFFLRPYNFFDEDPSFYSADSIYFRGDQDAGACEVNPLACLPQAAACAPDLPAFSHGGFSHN
Assay: SSAO enzyme inhibition assay (Amplex Red/HRP coupled, benzylamine substrate)
Settings: purified recombinantly expressed human SSAO; benzylamine 100 μM; about 60 minutes pre-incubation; room temperature
Experimental: Biological Assay of the SSAO Enzyme Inhibitors All assays were performed in room temperature with purified recombinantly expressed human SSAO. […] The enzyme activity was measured with benzylamine as substrate and utilized the production of hydrogen peroxide for detection. […] Briefly, test compounds were dissolved in dimethyl sulfoxide (DMSO) to a concentration of 10 mM. […] The inhibition was measured as % decrease of the signal compared to a control without inhibitor (only diluted DMSO). […]
measuredMetric: IC50 (nM)
Give the value, in units of nM, as a plain number.

Record request: IC50 value, item Clc1ccc(-c2nn(C3CCNCC3)c3ccncc23)cc1 [Example 5]
120

Check Cc1ccc(-c2nn(C3CCOCC3)c3ccncc23)cc1 [Example 3] too.
89
